- System: Ps. aeruginosa
- TEST: preservative for cutting oil emulsions
- Format: cell-based
- DETAILS: Pseudomonas aeruginosa, 504 h; cutting oil emulsion, incubation 3 weeks, 28°; read-out: Minimum Inhibitory Concentration
Some compounds, each annotated with its measured MIC.
METRIC NAME: MIC (µg/mL)

INSERT INTO measurements (compound, experimental_system, metric_name, inequality_sign, experimental_result) VALUES
  ('CN1SC=CC1=C(C#N)C#N [drawing 12 CH3, H, H]', 'Ps. aeruginosa', 'MIC', '=', 500),
  ('CCOC(=O)C1=C(Cl)C(=C(C#N)C#N)N(C)S1 [drawing 12 CH3, Cl, COOEt]', 'Ps. aeruginosa', 'MIC', '=', 125),
  ('CC1=C(Cl)C(=C(C#N)C#N)N(C)S1 [drawing 12 CH3, Cl, CH3]', 'Ps. aeruginosa', 'MIC', '=', 500),
  ('CN1SC=C(Cl)C1=C(C#N)C#N [drawing 12 CH3, Cl, H]', 'Ps. aeruginosa', 'MIC', '<', 32),
  ('CCOC(=O)c1s[n+](C)c(Cl)c1Cl [No. 24 (Table I)]', 'Ps. aeruginosa', 'MIC', '=', 250),
  ('CCC[n+]1sc(Cl)c(Cl)c1Cl.O=S(=O)([O-])C(F)(F)F [No. 10 (Table I)]', 'Ps. aeruginosa', 'MIC', '<', 32),
  ('CCOC(=O)c1sn(C)c(=S)c1Cl [No. 5 (Table VIII)]', 'Ps. aeruginosa', 'MIC', '=', 125),
  ('C[n+]1scc([N+](=O)[O-])c1Cl [No. 28 (Table I)]', 'Ps. aeruginosa', 'MIC', '=', 500),
  ('Cn1sc(C#N)c(Cl)c1=S [No. 6 (Table VIII)]', 'Ps. aeruginosa', 'MIC', '=', 250),
  ('C[n+]1sc(Cl)c(C#N)c1Cl [No. 26 (Table I)]', 'Ps. aeruginosa', 'MIC', '=', 250),
  ('CN1SC(Cl)=C(Cl)C1=C(C#N)C#N [drawing 12 CH3, Cl, Cl]', 'Ps. aeruginosa', 'MIC', '=', 250),
  ('CCn1sc(Cl)c(Cl)c1=S [No. 2 (Table VIII)]', 'Ps. aeruginosa', 'MIC', '=', 62),
  ('CCN1SC=CC1=C(C#N)C#N [drawing 12 CH2CH3, H, H]', 'Ps. aeruginosa', 'MIC', '=', 250),
  ('C[n+]1sc(C#N)c(Cl)c1Cl [No. 25 (Table I)]', 'Ps. aeruginosa', 'MIC', '=', 250),
  ('CC[n+]1sc(Cl)c(Cl)c1Cl.F[B-](F)(F)F [No. 7 (Table I)]', 'Ps. aeruginosa', 'MIC', '=', 8),
  ('CN1SC(C#N)=C(Cl)C1=C(C#N)C#N [drawing 12 CH3, Cl, CN]', 'Ps. aeruginosa', 'MIC', '=', 250);

----------
- Tested on: Ps. aeruginosa
- TEST: preservative for cutting oil emulsions
- Assay type: cell-based
- DETAILS: Pseudomonas aeruginosa, 336 h; cutting oil emulsion, incubation 2 weeks, 28°; read-out: Minimum Inhibitory Concentration
- Description: Various aliquots of a 6% solution of the chemical in ethanol were added to cutting oil emulsions prepared by diluting Kutwell 30 cutting oil concentrate 1 to 30 with water. These samples were inoculated with a culture of Ps. aeruginosa and incubated at 28° on a rotary shaker. At weekly intervals the samples were examined for microorganisms and then reinoculated and incubated.
MIC strictly less than 100 µg/mL = condition met. Otherwise condition not met.

INSERT INTO measurements (compound, experimental_system, label) VALUES
  ('CN1SC(Cl)=C(Cl)C1=C(C#N)C#N [drawing 12 CH3, Cl, Cl]', 'Ps. aeruginosa', 'condition not met'),
  ('CCOC(=O)C1=C(Cl)C(=C(C#N)C#N)N(C)S1 [drawing 12 CH3, Cl, COOEt]', 'Ps. aeruginosa', 'condition not met'),
  ('CC[n+]1sc(Cl)c(Cl)c1Cl.F[B-](F)(F)F', 'Ps. aeruginosa', 'condition met'),
  ('CN1SC=CC1=C(C#N)C#N [drawing 12 CH3, H, H]', 'Ps. aeruginosa', 'condition not met'),
  ('CN1SC(C#N)=C(Cl)C1=C(C#N)C#N [drawing 12 CH3, Cl, CN]', 'Ps. aeruginosa', 'condition not met'),
  ('CC1=C(Cl)C(=C(C#N)C#N)N(C)S1 [drawing 12 CH3, Cl, CH3]', 'Ps. aeruginosa', 'condition not met'),
  ('C[n+]1sc(Cl)c(C#N)c1Cl', 'Ps. aeruginosa', 'condition not met'),
  ('C[n+]1scc([N+](=O)[O-])c1Cl', 'Ps. aeruginosa', 'condition not met'),
  ('CN1SC=C(Cl)C1=C(C#N)C#N [drawing 12 CH3, Cl, H]', 'Ps. aeruginosa', 'condition met'),
  ('CCOC(=O)c1s[n+](C)c(Cl)c1Cl', 'Ps. aeruginosa', 'condition not met'),
  ('CCOC(=O)c1sn(C)c(=S)c1Cl', 'Ps. aeruginosa', 'condition not met'),
  ('CCC[n+]1sc(Cl)c(Cl)c1Cl.O=S(=O)([O-])C(F)(F)F', 'Ps. aeruginosa', 'condition met'),
  ('CCN1SC=CC1=C(C#N)C#N [drawing 12 CH2CH3, H, H]', 'Ps. aeruginosa', 'condition not met'),
  ('C[n+]1sc(C#N)c(Cl)c1Cl', 'Ps. aeruginosa', 'condition not met'),
  ('CCn1sc(Cl)c(Cl)c1=S', 'Ps. aeruginosa', 'condition met'),
  ('Cn1sc(C#N)c(Cl)c1=S', 'Ps. aeruginosa', 'condition not met');
